- assay-target: TRAP1 enzyme (Homo sapiens, UniProt Q12931)
- Construct: 150 nM Trap1 enzyme was incubated with various concentrations of the test compound
- Sequence (Q12931 60-704): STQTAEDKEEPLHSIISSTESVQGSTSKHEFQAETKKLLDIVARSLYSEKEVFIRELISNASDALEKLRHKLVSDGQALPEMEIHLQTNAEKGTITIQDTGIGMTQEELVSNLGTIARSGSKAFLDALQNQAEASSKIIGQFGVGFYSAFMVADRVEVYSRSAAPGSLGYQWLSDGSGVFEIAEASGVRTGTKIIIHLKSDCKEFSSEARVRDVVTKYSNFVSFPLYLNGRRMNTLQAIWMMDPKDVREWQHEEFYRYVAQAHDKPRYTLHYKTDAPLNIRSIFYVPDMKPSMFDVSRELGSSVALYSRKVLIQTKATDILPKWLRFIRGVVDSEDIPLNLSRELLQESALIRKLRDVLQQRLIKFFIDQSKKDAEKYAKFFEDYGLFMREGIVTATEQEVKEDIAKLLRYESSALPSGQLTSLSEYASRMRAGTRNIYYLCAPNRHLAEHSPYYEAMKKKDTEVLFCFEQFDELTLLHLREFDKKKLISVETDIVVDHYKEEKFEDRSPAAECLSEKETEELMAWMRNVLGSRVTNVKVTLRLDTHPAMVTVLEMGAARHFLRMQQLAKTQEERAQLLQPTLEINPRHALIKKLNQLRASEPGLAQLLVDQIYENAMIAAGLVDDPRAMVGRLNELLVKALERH
- assay-name: ADP Glo assay of TRAP1 ATPase activity
- Format: biochemical
- experimental-context: maximal percent activation; read-out: ADP GLO DRC: Mean Emax
assay-endpoint: Emax

The cases that follow already have their Emax on record.
In [3]: df
Out[3]:
                                   compound                              assay_target  recorded_measurement
0  COc1ncc(NC(=O)c2cc(-n3ccnc3)ccn2)cc1S(=O)(=O)Nc1ccc(Cl)cc1  TRAP1 enzyme (Homo sapiens, UniProt Q12931)           160 to 199%
1  CCOc1cc(NS(=O)(=O)c2cc(NC(=O)c3csc(-c4ccccc4)n3)cnc2OC)ccn1  TRAP1 enzyme (Homo sapiens, UniProt Q12931)           119 to 159%
2  COc1ncc(NC(=O)c2coc(-c3ccccc3)n2)cc1S(=O)(=O)Nc1cccc(C#N)n1  TRAP1 enzyme (Homo sapiens, UniProt Q12931)           160 to 199%
3  COc1ncc(NC(=O)c2ncc(-c3ccccc3)o2)cc1S(=O)(=O)Nc1ccc2c(n1)CCC2  TRAP1 enzyme (Homo sapiens, UniProt Q12931)           119 to 159%
4  COc1ccc(F)cc1C(=O)Nc1cnc(OC)c(S(=O)(=O)Nc2c(C)cccc2C)c1  TRAP1 enzyme (Homo sapiens, UniProt Q12931)           200 to 300%
5  COc1ncc(NC(=O)c2coc(-c3ccccc3)n2)cc1S(=O)(=O)Nc1c(C)cccc1C1CC1  TRAP1 enzyme (Homo sapiens, UniProt Q12931)           200 to 300%
6  COc1ncc(NC(=O)c2csc(-c3ccccc3)n2)cc1S(=O)(=O)Nc1ccnc2cccnc12  TRAP1 enzyme (Homo sapiens, UniProt Q12931)           119 to 159%
7  COc1ncc(NC(=O)c2csc(-c3ccccc3)n2)cc1S(=O)(=O)Nc1c(C)cnn1C  TRAP1 enzyme (Homo sapiens, UniProt Q12931)           119 to 159%
8  COc1ncc(NC(=O)c2csc(-c3ccccc3)n2)cc1S(=O)(=O)Nc1ncc(C(F)(F)F)cn1  TRAP1 enzyme (Homo sapiens, UniProt Q12931)           200 to 300%
9  COc1ncc(NC(=O)c2csc3c2C2CCN3CC2)cc1S(=O)(=O)Nc1ccc(Cl)cc1  TRAP1 enzyme (Homo sapiens, UniProt Q12931)           200 to 300%

Exercise: Read the entry Cc1c[n+]([O-])c(NC(=O)c2ncc(-c3ccccc3)o2)cc1S(=O)(=O)Nc1ccc(Cl)cc1 and write its reported Emax.
Key: 119 to 159%

Exercise: Read the entry O=C(Nc1cc(S(=O)(=O)Nc2ccc(Cl)cc2)ccn1)c1cnc(-c2ccccc2)[nH]1 and write its reported Emax.
Key: 200 to 300%

Exercise: Read the entry COc1ncc(NC(=O)c2ncc(-c3ccccc3)o2)cc1S(=O)(=O)Nc1cc(F)c(F)cc1F and write its reported Emax.
Key: 160 to 199%

Exercise: Read the entry [2H]c1c([2H])c([2H])c(-c2nc(C(=O)Nc3cnc(OC)c(S(=O)(=O)Nc4c(C)cccc4C)c3)cs2)c([2H])c1[2H] and write its reported Emax.
Key: 119 to 159%

Exercise: Read the entry COc1ncc(NC(=O)c2ncc(-c3ccccc3)o2)cc1S(=O)(=O)Nc1c(C)c(-c2ccccc2)nn1C and write its reported Emax.
Key: 160 to 199%

Exercise: Read the entry COc1ncc(NC(=O)c2ccc3c(c2)n(C)c(=O)n3C)cc1S(=O)(=O)Nc1ccc(Cl)cc1 and write its reported Emax.
Key: 119 to 159%

Exercise: Read the entry COc1ncc(NC(=O)c2csc(-c3ccccc3OCC(O)CO)n2)cc1S(=O)(=O)Nc1c(C)cccc1C (stereo not drawn) and write its reported Emax.
Key: 200 to 300%

---

- assay-target: TRAP1 enzyme (Homo sapiens, UniProt Q12931)
- Construct: 150 nM Trap1 enzyme was incubated with various concentrations of the test compound
- assay-name: ADP Glo assay of TRAP1 ATPase activity
- Assay type: biochemical
- experimental-context: concentration for half maximal activation; read-out: ADP GLO DRC: GeoMean EC50
- Method: Potency of test compounds to modulate the ATPase activity of TRAP1 enzyme was evaluated using ADP Glo assay. The assay is based on quantification of the ADP generated from ATP in the ATPase reaction. […] Second, the Kinase Detection Reagent is added to simultaneously convert ADP to ATP and allow the newly synthesized ATP to be measured using a luciferase/luciferin reaction. […]
// reported EC50 for each item listed

In [3]: df
Out[3]:
                                   compound                              assay_target  assay_endpoint  recorded_measurement
0  COc1ncc(NC(=O)c2ncc(-c3ccccc3)o2)cc1S(=O)(=O)Nc1cc(F)c(F)cc1F  TRAP1 enzyme (Homo sapiens, UniProt Q12931)            EC50          20 to 100 µM

Exercise: Fill in: EC50 on TRAP1 enzyme (Homo sapiens, UniProt Q12931), entry COCCOc1cc(NS(=O)(=O)c2cc(NC(=O)c3csc(-c4ccccc4)n3)cnc2OC)ccn1
Key: 20 to 100 µM

---

- assay-target: TRAP1 enzyme (Homo sapiens)
- Construct: 150 nM Trap1 enzyme was incubated with various concentrations of the test compound
- assay-name: ADP Glo assay of TRAP1 ATPase activity
- Assay type: biochemical
- experimental-context: concentration for half maximal activation; read-out: ADP GLO DRC: GeoMean EC50
pEC50: −log10 of the molar value.
// reported pEC50 for each item listed

The cases that follow already have their pEC50 on record.
In [3]: df
Out[3]:
                                   compound  assay_endpoint  recorded_measurement
0  COc1cc(NS(=O)(=O)c2cc(NC(=O)c3csc(-c4ccccc4)n3)cnc2OC)ccn1           pEC50          4.00 to 4.70
1  CCCC(C)c1cc(NS(=O)(=O)c2cc(NC(=O)c3ncc(-c4ccccc4)o3)cnc2OC)on1 (stereo not drawn)           pEC50          4.00 to 4.70
2  COc1ncc(NC(=O)c2csc(-c3ccccc3)n2)cc1S(=O)(=O)Nc1cccn2nc(C)nc12           pEC50          4.00 to 4.70
3  COc1ncc(NC(=O)c2csc(-c3ccccc3)n2)cc1S(=O)(=O)Nc1ccc(C)nc1C           pEC50          4.00 to 4.70

Let us examine a further case.
Exercise: Read the entry COc1ncc(NC(=O)c2csc3c2CN(C)CC3)cc1S(=O)(=O)Nc1c(C)cccc1C and write its reported pEC50.
Key: 4.00 to 4.70

---

- assay-target: TRAP1 enzyme (Homo sapiens)
- Construct: 150 nM Trap1 enzyme was incubated with various concentrations of the test compound
- assay-name: ADP Glo assay of TRAP1 ATPase activity
- Assay type: biochemical
- experimental-context: 1 h; compound concentration 50 μM; read-out: ADP-Glo Percent Activation at 50 μM
// reported activation at 50 µM for each item listed

The cases that follow already have their activation at 50 µM on record.
>>> print(df.to_string())
                                   molecule  recorded_measurement
0  COc1ncc(NC(=O)c2ccc(OC(F)(F)F)cc2)cc1S(=O)(=O)Nc1c(C)cccc1C [compound 2531]           120 to 150%
1  COc1ncc(NC(=O)c2ccc(N3CCN(C)CC3)cc2Cl)cc1S(=O)(=O)Nc1c(C)cccc1C [compound 2774]           181 to 352%
2  COc1ncc(NC(=O)c2cnn3c2SCC3)cc1S(=O)(=O)Nc1c(C)cccc1C [compound 2740]           181 to 352%

Exercise: Read the entry COc1ncc(NC(=O)c2cnsc2)cc1S(=O)(=O)Nc1c(C)cccc1C [compound 2636] and write its reported activation at 50 µM.
Key: 120 to 150%

Exercise: Read the entry COc1ncc(NC(=O)c2nn(C)cc2F)cc1S(=O)(=O)Nc1c(C)cccc1C [compound 2624] and write its reported activation at 50 µM.
Key: 151 to 180%

Exercise: Read the entry COc1ncc(NC(=O)c2[nH]ncc2Cl)cc1S(=O)(=O)Nc1c(C)cccc1C [compound 2779] and write its reported activation at 50 µM.
Key: 151 to 180%

Exercise: Read the entry COc1ncc(NC(=O)c2cnc3c(c2)OCCN3C)cc1S(=O)(=O)Nc1c(C)cccc1C [compound 2793] and write its reported activation at 50 µM.
Key: 181 to 352%

Exercise: Read the entry COc1ncc(NC(=O)c2ccc(N(C)C)nc2)cc1S(=O)(=O)Nc1c(C)cccc1C [compound 2788] and write its reported activation at 50 µM.
Key: 181 to 352%

Exercise: Read the entry COc1ncc(NC(=O)c2ccnn2C)cc1S(=O)(=O)Nc1c(C)cccc1C [compound 2559] and write its reported activation at 50 µM.
Key: 120 to 150%

Exercise: Read the entry COc1ncc(NC(=O)c2ccc(N3CCOCC3)c(F)c2)cc1S(=O)(=O)Nc1c(C)cccc1C [compound 2655] and write its reported activation at 50 µM.
Key: 181 to 352%

Exercise: Read the entry COc1ncc(NC(=O)c2cccc(N3CCOCC3)c2C)cc1S(=O)(=O)Nc1c(C)cccc1C [compound 2782] and write its reported activation at 50 µM.
Key: 181 to 352%

Exercise: Read the entry CCn1nc(C(=O)Nc2cnc(OC)c(S(=O)(=O)Nc3c(C)cccc3C)c2)cc1C [compound 2691] and write its reported activation at 50 µM.
Key: 181 to 352%

Exercise: Read the entry COc1ncc(NC(=O)c2cc3n(n2)CCC3)cc1S(=O)(=O)Nc1c(C)cccc1C [compound 2663] and write its reported activation at 50 µM.
Key: 151 to 180%

Exercise: Read the entry CCCc1nnsc1C(=O)Nc1cnc(OC)c(S(=O)(=O)Nc2c(C)cccc2C)c1 [compound 2714] and write its reported activation at 50 µM.
Key: 181 to 352%

Exercise: Read the entry COc1ncc(NC(=O)c2ccnn2CC(F)(F)F)cc1S(=O)(=O)Nc1c(C)cccc1C [compound 2651] and write its reported activation at 50 µM.
Key: 181 to 352%

Exercise: Read the entry COc1cc(C(=O)Nc2cnc(OC)c(S(=O)(=O)Nc3c(C)cccc3C)c2)ccn1 [compound 2575] and write its reported activation at 50 µM.
Key: 151 to 180%
